The values you see were collected from the kinase profiling compilation of Christmann-Franck et al. (2016).

Target: PHKG1 (human)
Experiment: KINOMEscan competition binding
Settings: compound 10.0 µM
Readout Label: kinase still bound, per cent of control (%)
One number for each entry, in %.

{"columns": ["Molecule", "kinase still bound, per cent of control (%)"],
 "data": [
  ["N#C/C(=C1/Nc2ccccc2S1)c1ccnc(NCCc2cccnc2)n1", 100],
  ["COc1cc(C)c(Sc2cnc(NC(=O)c3ccc(CNC(C)C(C)C)cc3)s2)cc1C(=O)N1CCN(C(C)=O)CC1 (stereo not drawn)", 100],
  ["COc1cc(N2CCC(C(N)=O)CC2)ccc1Nc1nc(N)c(Cl)c(Nc2ccccc2S(=O)(=O)C(C)C)n1", 12],
  ["CNC(=O)Nc1ccc(-c2nc(N3CC4CCC(C3)O4)c3cnn(C4CCC5(CC4)OCCO5)c3n2)cc1", 100],
  ["COc1cc2ncnc(Nc3cccc(Cl)c3)c2cc1OC", 67]
]}

Go through the items and report each one's kinase still bound, per cent of control.
1. CCCS(=O)(=O)Nc1ccc(F)c(C(=O)c2c[nH]c3ncc(Cl)cc23)c1F
2. O=c1[nH]c2ccccc2n1C1CCN(Cc2ccc(-c3nc4cc5[nH]cnc5cc4nc3-c3ccccc3)cc2)CC1

*A*
[100, 100]
